- testedTarget: mouse SMO^D473H (Mus musculus, UniProt P56726, D477H)
- Construct: expressed in transfected cells
- Sequence (P56726 33-793 D477H): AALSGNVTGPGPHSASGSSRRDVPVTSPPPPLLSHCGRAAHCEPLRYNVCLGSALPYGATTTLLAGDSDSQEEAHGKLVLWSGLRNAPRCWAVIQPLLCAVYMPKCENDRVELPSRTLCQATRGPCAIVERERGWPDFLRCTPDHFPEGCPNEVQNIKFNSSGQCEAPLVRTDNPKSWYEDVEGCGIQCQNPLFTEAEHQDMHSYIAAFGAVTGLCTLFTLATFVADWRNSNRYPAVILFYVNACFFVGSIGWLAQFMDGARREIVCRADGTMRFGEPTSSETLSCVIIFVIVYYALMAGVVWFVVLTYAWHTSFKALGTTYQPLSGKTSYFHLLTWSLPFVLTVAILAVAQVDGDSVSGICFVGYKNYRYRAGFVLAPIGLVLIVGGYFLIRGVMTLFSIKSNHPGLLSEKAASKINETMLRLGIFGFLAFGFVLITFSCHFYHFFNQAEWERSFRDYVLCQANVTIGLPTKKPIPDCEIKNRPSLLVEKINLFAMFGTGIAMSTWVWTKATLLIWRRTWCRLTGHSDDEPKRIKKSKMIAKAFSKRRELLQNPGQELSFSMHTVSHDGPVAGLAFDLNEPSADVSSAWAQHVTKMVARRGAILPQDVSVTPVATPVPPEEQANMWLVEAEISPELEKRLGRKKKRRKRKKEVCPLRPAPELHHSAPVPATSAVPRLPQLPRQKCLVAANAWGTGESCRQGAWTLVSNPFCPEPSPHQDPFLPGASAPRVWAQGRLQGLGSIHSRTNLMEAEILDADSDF
- assayExplanation: Mouse assay: Gli1 qPCR in MEF cells stably expressing mouse SMO D473H; note: test concentration or dose not given here
- Format: cell-based
- conditionNotes: mSHh-treated, 24 hours, percentage Gli1 inhibition
Each entry below carries its reported Mouse D473H % Inh.
The figure you give is taken to be in %; do not add the unit.

O=C(Nc1ccc(-c2cc(C3CC3)on2)cc1)c1cccc(CN2CCS(=O)(=O)CC2)c1 = 99.3
Cc1ccc(Cc2nc(-c3ccc(NC(=O)c4cccc(CN5CCS(=O)(=O)CC5)c4)cc3)no2)cc1 = 98.8
CC1CN(Cc2cccc(C(=O)Nc3ccc(-c4nc(C5CC5)n[nH]4)cc3)c2)CCS1(=O)=O (centres unmarked) = 95.6
Cc1oc(-c2ccc(NC(=O)c3ccc(Cl)c(CN4CCS(=O)(=O)CC4)c3)cc2)nc1C1CC1 = 98.5
O=C(Nc1ccc(-c2nc(-c3cccc(Oc4nccs4)c3)n[nH]2)cc1)c1cccc(CN2CCS(=O)(=O)CC2)c1 = 78.5

// switching to the query molecule
**Query** # lookup: Mouse D473H % Inh of "O=C(Nc1ccc(-c2nc(C3CC3)n[nH]2)cc1)c1cc(CN2CCS(=O)(=O)CC2)ccc1F"
**Result** 95.3

These data points were gathered from patent US20250136559A1.
